The values you see were collected from patent US20220144922A1.

molecular target: RSV F protein of subtype B strain 18537, on virus (respiratory syncytial virus subtype B …, UniProt P13843 26-574); assay: cell-based or functional assay
Sequence (P13843 26-574): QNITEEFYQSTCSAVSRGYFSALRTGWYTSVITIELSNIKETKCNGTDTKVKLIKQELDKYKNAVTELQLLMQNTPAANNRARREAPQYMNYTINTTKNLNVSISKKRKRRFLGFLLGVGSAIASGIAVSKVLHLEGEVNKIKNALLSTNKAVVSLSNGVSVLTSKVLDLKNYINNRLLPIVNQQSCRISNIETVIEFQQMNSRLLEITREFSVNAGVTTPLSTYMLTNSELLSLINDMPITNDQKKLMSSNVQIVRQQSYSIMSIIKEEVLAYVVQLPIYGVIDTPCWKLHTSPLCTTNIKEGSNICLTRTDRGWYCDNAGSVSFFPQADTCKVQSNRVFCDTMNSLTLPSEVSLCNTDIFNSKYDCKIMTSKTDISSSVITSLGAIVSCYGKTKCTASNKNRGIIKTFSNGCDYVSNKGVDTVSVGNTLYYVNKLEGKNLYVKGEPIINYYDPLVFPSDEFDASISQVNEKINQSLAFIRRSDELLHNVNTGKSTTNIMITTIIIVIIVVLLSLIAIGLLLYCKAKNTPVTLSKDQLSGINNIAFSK
Property Measured: Neut IC50 (ug/ml) subtype B (µg/mL)
One number for each entry, in µg/mL.

Q: Fill blank: measured Neut IC50 (ug/ml) subtype B of the binder ADI-15654 (antibody, V domains shown, IgG; also called Antibody Number 218) VH: QVQLVQSGAEVKRPGSSVKVSCKASGGTSSSYIISWVRQAPGQGLEWMGGIIPIPISGAPTYAQKFQGRANYAQKFEGRLTITADRLTSTAYMELSSLTSEDTAVYYCVRDERNGGYWGQGTLVTVSS VL: QSALTQPASVSGSPGQSITISCTGTSNDVGAYNHVSWYQQHPGKAPKLMIYDVTNRPSGVSNRFSGSKSGNTASLTIFGLQTDDEADYYCSSYTISSTLVFGGGTQLTVL is ____.
A: 3.27
